Hey, just so you know, these numbers are from PubChem BioAssay (NCI).

- Test system: BT-549 breast
- test: NCI-60 one-dose screen, 48 h (100 = growth as untreated, 0 = no growth, -100 = all killed)
- runConditions: 10 µM unless noted
This is part of a sample that, as a whole, favours compounds with a hit. Of some 83,000 tested, about 20% had one in any assay.
Binarize growth at 50%; below is fulfilled, at or above is not fulfilled.

QUERY: hey, is growth for CC1CCCN(CCCCCOc2ccc3oc4ccc(Cl)cc4c(=O)c3c2)C1 (configuration not stated) lower than 50% or not?
RESULT: not fulfilled

QUERY: hey, is growth for Cc1cnc(SCc2ccc(Cl)cc2)[nH]c1=S lower than 50% or not?
RESULT: not fulfilled

QUERY: hey, is growth for O=C(Nc1nc2ccc(C(F)(F)F)cc2s1)c1cc(Cl)ccc1O lower than 50% or not?
RESULT: fulfilled

QUERY: hey, is growth for O=C1Nc2ccc(Cl)cc2/C1=N/c1nc(-c2ccc(Cl)cc2)cs1 lower than 50% or not?
RESULT: fulfilled

QUERY: hey, is growth for O=c1[nH]c2ccccc2cc1-c1nc2ccc(Cl)cc2[nH]1 lower than 50% or not?
RESULT: fulfilled

QUERY: hey, is growth for C[C@H]1[C@H](C)CC[C@]2(C(=O)OCCOCCOCC[P+](c3ccccc3)(c3ccccc3)c3ccccc3)CC[C@]3(C)C(=CC[C@@H]4[C@@]5(C)CC[C@H](OC(=O)C(Cl)Cl)C(C)(C)[C@@H]5CC[C@]43C)[C@H]12 lower than 50% or not?
RESULT: fulfilled

QUERY: hey, is growth for OCCNc1nc(NCCO)nc(Nc2ccc(C3=NN(c4cc(Cl)cc(Cl)c4)C(c4ccc(Cl)cc4)C3)cc2)n1 (configuration not stated) lower than 50% or not?
RESULT: not fulfilled

QUERY: hey, is growth for CN1CCN(/C=C2\CC(C(=O)NCc3ccc(Cl)cc3Cl)NC2=O)CC1 (configuration not stated) lower than 50% or not?
RESULT: not fulfilled

QUERY: hey, is growth for COC(=O)/C=C1\SC(=Nc2cccc(Cl)c2)N(CCc2c[nH]c3ccccc23)C1=O lower than 50% or not?
RESULT: fulfilled

QUERY: hey, is growth for COc1ccc(C2C(c3ccccc3)C(=O)N2c2cc(OC)c(OC)c(OC)c2)cc1I (configuration not stated) lower than 50% or not?
RESULT: fulfilled

QUERY: hey, is growth for C#C[C@@]1(O)[C@@H](CO)O[C@@H](n2cc(I)c3c(N)ncnc32)[C@@H]1O lower than 50% or not?
RESULT: fulfilled

QUERY: hey, is growth for N#Cc1c(-c2ccc(F)cc2)c(C#N)c2c(C#N)c(N)nn2c1N lower than 50% or not?
RESULT: not fulfilled

QUERY: hey, is growth for COc1cccc(NC(=O)Nc2ccc(Oc3ncnc4[nH]c(C)c(C)c34)cc2)c1 lower than 50% or not?
RESULT: not fulfilled

QUERY: hey, is growth for COc1ccc(-c2cc(-c3nnc(SCC(=O)Nc4ccc(/C(C)=N\O)cc4)n3-c3ccccc3)c3cc(OC)ccc3n2)cc1 lower than 50% or not?
RESULT: not fulfilled

QUERY: hey, is growth for C=C1C(=O)O[C@H]2[C@H]1CC/C(COC(=O)c1cc3ccccc3o1)=C\CC[C@@]1(C)O[C@@H]21 lower than 50% or not?
RESULT: fulfilled

QUERY: hey, is growth for CC(=O)OCC1OC(OC2C(COC(C)=O)OC(OCCC[S-])C(OC(C)=O)C2OC(C)=O)C(OC(C)=O)C(OC(C)=O)C1OC(C)=O.[Au+].c1ccc(CN2[CH-]N(Cc3ccccc3)C(c3ccccc3)=C2c2ccccc2)cc1 (configuration not stated) lower than 50% or not?
RESULT: fulfilled

QUERY: hey, is growth for CC1CCN(CCCCCOc2ccc3oc4cc(Cl)ccc4c(=O)c3c2)CC1 lower than 50% or not?
RESULT: not fulfilled

QUERY: hey, is growth for O=C(CSC(=S)N1CCCCC1)Nc1ccccc1 lower than 50% or not?
RESULT: not fulfilled

QUERY: hey, is growth for Cc1cc(NC(=O)CNc2nc(Oc3ccc(F)cc3)nc(-c3ccc(F)cc3)n2)ccc1Cl lower than 50% or not?
RESULT: not fulfilled

QUERY: hey, is growth for COC(=O)CCc1n(Cc2ccc3ccccc3c2)c2ccccc2[n+]1Cc1ccc2ccccc2c1 lower than 50% or not?
RESULT: fulfilled

QUERY: hey, is growth for C=C(C)[C@@H]1CC[C@]2(C(=O)NCCCO)CC[C@]3(C)[C@H](CC[C@@H]4[C@@]5(C)CCCNC(C)(C)[C@@H]5CC[C@]43C)[C@@H]12 lower than 50% or not?
RESULT: not fulfilled

QUERY: hey, is growth for CCOC(=O)C1CCN(S(=O)(=O)/N=C2/NC(=O)NC2=C(Cl)Cl)CC1 lower than 50% or not?
RESULT: fulfilled
